System: Japanese medaka (Oryzias latipes)
Assay: Fish Short‐Term Reproduction Assay
Format: in vivo
Conditions: concentrations without overt toxicity
Could you label it True if measured LOECREPRO (reduction in fecundity or fertility) is 100 µg/L or higher, and False otherwise?

Solved cases (3 shown):
>  <MOLECULE>
CCCOC(=O)c1ccc(O)cc1 [PPB, 4‐Hydroxybenzoate propyl]

>  <TARGET_OF_ASSAY>
Japanese medaka (Oryzias latipes)

>  <LABEL_VALUE>
True

$$$$
>  <MOLECULE>
CCC(C)(C)c1ccc(O)cc1

>  <TARGET_OF_ASSAY>
Japanese medaka (Oryzias latipes)

>  <LABEL_VALUE>
True

$$$$
>  <MOLECULE>
C[C@]12CC[C@@H]3c4ccc(O)cc4CC[C@H]3[C@@H]1CCC2=O [Chemical E1, Estrone]

>  <TARGET_OF_ASSAY>
Japanese medaka (Oryzias latipes)

>  <LABEL_VALUE>
False

$$$$

Proceed to the following item.
Query :: Threshold query (LOECREPRO (reduction in fecundity or fertility) >= 100 µg/L) on O=P(Oc1ccccc1)(Oc1ccccc1)Oc1ccccc1 [TPP, Triphenyl phosphate]
Result :: False

---

Biological target: medaka Esr1 (mEsr1) (Oryzias latipes)
Test: cell-based
Design: species or system Japanese medaka (Oryzias latipes)
Settings: read-out: Agonistic activity EC50; HEK293 cells
Examples of compounds with documented pEC50 follow.
Worth noting: pEC50 values are minus log10 of concentrations stated in mol/L.

>  <SUBSTANCE_SMILES>
O=C(c1ccc(O)cc1O)c1ccc(O)cc1O

>  <TARGET_OF_ASSAY>
medaka Esr1 (mEsr1) (Oryzias latipes)

>  <VALUE>
5.80

$$$$

Query :: Read off the recorded pEC50 for Oc1cccc2ccccc12
Result :: 4.11

---

System: Japanese medaka (Oryzias latipes)
Experiment: Fish Short‐Term Reproduction Assay
Assay type: in vivo
Details: lowest observed effect concentration on mortality
The following compounds are listed with their measured LOECTOX values.

Query :: Give the reported LOECTOX for this compound. O=C1NC(=O)C(c2ccccc2)(c2ccccc2)N1 [PHT, Phenitoin, reference compound]
Result :: 4,760 μg/L

Query :: Please give measured LOECTOX of the following entry: Oc1cc(Cl)ccc1Oc1ccc(Cl)cc1Cl
Result :: 177 µg/L

---

Target: medaka Esr1 (mEsr1) (Oryzias latipes)
Test: Medaka Esr1 reporter gene assay, antagonist assay
Assay type: cell-based, Japanese medaka (Oryzias latipes)
MEASURED_METRIC: IC50 (nM)
Lab book: enter the figure in nM, no units written.

Query :: Tell us which IC50 value is on record for CCNc1nc(Cl)nc(NC(C)(C)C#N)n1
Result :: 610

---

System: Japanese medaka (Oryzias latipes)
Test: Fish Short‐Term Reproduction Assay
Assay type: in vivo
Conditions: LOEC on reproduction (fecundity and/or fertility)
MEASURED_METRIC: LOECREPRO

Use these answered entries as a reference point.
>  <MOLECULE>
O=C(c1ccc(O)cc1O)c1ccc(O)cc1O

>  <VALUE>
9,530 μg/L

$$$$
>  <MOLECULE>
CCC(C)(C)c1ccc(O)cc1

>  <VALUE>
940 µg/L

$$$$
>  <MOLECULE>
C[C@]12CC[C@@H]3c4ccc(O)cc4CC[C@H]3[C@@H]1CCC2=O [Chemical E1, Estrone]

>  <VALUE>
1.009 µg/L

$$$$

Query :: Return reported LOECREPRO. Input molecule: COC(=O)c1ccc(O)cc1 [MPB, 4‐Hydroxybenzoate methyl]
Result :: 9,750 μg/L

Query :: Indicate the recorded LOECREPRO value for this molecule: CCNc1nc(Cl)nc(NC(C)(C)C#N)n1
Result :: 1,020 μg/L

Query :: Respond only with LOECREPRO recorded for O=C1NC(=O)C(c2ccccc2)(c2ccccc2)N1 [PHT, Phenitoin, reference compound]
Result :: 8,720 μg/L

Query :: Consider the molecule CCOP(=S)(OCC)Oc1cc(C)nc(C(C)C)n1 . State its measured LOECREPRO.
Result :: 196 µg/L

Query :: For the molecule CCC(CC)Nc1c([N+](=O)[O-])cc(C)c(C)c1[N+](=O)[O-] , give its measured LOECREPRO value.
Result :: 100 µg/L

Query :: Quote LOECREPRO reported for CCCOC(=O)c1ccc(O)cc1 [PPB, 4‐Hydroxybenzoate propyl] please.
Result :: 926 µg/L

Query :: Output LOECREPRO of O=P(Oc1ccccc1)(Oc1ccccc1)Oc1ccccc1 [TPP, Triphenyl phosphate]
Result :: 44.9 µg/L

Query :: Name the recorded LOECREPRO of the molecule listed here: CC(C)(c1ccc(O)cc1)c1ccc(O)cc1
Result :: 4,670 μg/L

---

Molecular target: medaka ARβ (mArβ) (Oryzias latipes, UniProt D1MV73)
Sequence (D1MV73 1-744): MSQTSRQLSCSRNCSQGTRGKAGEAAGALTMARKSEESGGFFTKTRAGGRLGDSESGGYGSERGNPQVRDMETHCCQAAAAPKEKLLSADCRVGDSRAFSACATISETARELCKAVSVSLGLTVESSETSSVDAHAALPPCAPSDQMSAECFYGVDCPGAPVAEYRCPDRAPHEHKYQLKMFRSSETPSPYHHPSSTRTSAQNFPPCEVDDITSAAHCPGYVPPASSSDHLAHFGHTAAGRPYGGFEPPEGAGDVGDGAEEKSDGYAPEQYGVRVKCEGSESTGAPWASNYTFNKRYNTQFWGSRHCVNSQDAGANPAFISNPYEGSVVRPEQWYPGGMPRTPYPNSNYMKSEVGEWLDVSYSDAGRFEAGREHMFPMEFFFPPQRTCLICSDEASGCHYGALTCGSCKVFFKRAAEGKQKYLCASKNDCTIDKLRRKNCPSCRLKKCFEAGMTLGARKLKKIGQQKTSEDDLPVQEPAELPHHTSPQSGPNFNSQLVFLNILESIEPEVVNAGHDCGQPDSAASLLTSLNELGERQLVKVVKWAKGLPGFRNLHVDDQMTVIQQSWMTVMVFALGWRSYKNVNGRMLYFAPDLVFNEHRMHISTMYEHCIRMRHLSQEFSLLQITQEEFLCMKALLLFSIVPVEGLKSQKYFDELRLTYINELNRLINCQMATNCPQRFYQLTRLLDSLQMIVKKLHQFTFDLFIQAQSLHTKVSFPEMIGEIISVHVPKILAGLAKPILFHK
Experiment: Medaka ARβ reporter gene assay, antagonist assay
Format: cell-based, Japanese medaka (Oryzias latipes)
Conditions: read-out: Antagonistic activity IC50; 11‐KT spiked at 50 nM (D)
MEASURED_METRIC: pIC50
Friendly reminder that pIC50 comes from taking -log10 of the concentration in mol/L.

Query :: Answer briefly: pIC50 recorded on medaka ARβ (mArβ) (Oryzias latipes, UniProt D1MV73) for O=C(c1ccc(O)cc1O)c1ccc(O)cc1O
Result :: 4.40

---

Target: medaka Esr1 (mEsr1) (Oryzias latipes, UniProt P50241)
Sequence (P50241 whole entry): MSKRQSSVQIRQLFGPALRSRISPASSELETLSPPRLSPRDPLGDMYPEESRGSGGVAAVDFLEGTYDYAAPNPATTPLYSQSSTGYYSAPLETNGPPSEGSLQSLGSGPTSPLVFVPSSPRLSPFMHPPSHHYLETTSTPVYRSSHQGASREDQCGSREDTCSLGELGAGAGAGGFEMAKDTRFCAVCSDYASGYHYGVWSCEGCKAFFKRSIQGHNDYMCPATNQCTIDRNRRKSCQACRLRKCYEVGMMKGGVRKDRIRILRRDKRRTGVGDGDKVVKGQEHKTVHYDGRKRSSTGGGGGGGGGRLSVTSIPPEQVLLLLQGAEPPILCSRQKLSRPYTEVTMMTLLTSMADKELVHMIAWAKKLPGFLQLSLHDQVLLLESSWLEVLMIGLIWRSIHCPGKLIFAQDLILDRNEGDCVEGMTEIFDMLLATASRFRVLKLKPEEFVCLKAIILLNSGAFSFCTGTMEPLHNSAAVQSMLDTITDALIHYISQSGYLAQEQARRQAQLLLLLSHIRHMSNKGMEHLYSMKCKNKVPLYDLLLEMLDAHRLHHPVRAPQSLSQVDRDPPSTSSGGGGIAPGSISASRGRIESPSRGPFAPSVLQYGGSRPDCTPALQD
Assay: cell-based
Set-up: species or system Japanese medaka (Oryzias latipes)
The reader will find reported pEC50 values listed item by item below.
Value format note: pEC50 is -log10 of concentration (mol/L); just state the number.

>  <COMPOUND>
CC(C)(c1ccc(O)cc1)c1ccc(O)cc1 [BPA, Bisphenol A]

>  <pEC50>
7.07

$$$$

Query :: Provide medaka Esr1 (mEsr1) (Oryzias latipes, UniProt P50241) pEC50 reading for COC(=O)c1ccc(O)cc1 [MPB, 4‐Hydroxybenzoate methyl] .
Result :: 4.15

Query :: Find the measured pEC50 of CCCOC(=O)c1ccc(O)cc1 [PPB, 4‐Hydroxybenzoate propyl] with medaka Esr1 (mEsr1) (Oryzias latipes, UniProt P50241) as test system.
Result :: 5.15

---

Target: medaka ARβ (mArβ) (Oryzias latipes, UniProt D1MV73)
Sequence (D1MV73 1-744): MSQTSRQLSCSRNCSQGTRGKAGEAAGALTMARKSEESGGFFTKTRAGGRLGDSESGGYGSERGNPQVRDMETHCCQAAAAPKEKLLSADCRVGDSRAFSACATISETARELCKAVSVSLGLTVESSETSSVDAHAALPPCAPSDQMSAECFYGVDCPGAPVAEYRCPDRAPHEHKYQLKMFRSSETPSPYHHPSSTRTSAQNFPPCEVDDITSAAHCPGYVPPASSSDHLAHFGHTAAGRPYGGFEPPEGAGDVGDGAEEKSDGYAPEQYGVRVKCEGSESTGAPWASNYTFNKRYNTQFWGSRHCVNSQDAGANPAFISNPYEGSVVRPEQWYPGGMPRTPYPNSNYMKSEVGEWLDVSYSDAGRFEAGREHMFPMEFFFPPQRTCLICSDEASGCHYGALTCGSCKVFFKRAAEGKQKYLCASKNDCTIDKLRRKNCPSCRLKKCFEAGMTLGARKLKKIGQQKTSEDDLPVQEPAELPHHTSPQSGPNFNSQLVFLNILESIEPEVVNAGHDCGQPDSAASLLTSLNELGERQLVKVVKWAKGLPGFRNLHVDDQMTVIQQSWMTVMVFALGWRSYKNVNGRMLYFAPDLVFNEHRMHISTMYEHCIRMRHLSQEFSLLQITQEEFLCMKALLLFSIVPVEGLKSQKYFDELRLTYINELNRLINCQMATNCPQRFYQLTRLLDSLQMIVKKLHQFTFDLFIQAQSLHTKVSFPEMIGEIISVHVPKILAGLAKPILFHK
Test: Medaka ARβ reporter gene assay, antagonist assay
Format: cell-based, Japanese medaka (Oryzias latipes)
MEASURED_METRIC: IC50 (µM)
// return numeric value only (unit: µM, not printed)

Query :: Fill in reported IC50 for this entry: CC(C)(c1ccc(O)cc1)c1ccc(O)cc1
Result :: 7
